target_under_test: hGIPR (Homo sapiens, UniProt P48546)
Sequence (P48546 22-466): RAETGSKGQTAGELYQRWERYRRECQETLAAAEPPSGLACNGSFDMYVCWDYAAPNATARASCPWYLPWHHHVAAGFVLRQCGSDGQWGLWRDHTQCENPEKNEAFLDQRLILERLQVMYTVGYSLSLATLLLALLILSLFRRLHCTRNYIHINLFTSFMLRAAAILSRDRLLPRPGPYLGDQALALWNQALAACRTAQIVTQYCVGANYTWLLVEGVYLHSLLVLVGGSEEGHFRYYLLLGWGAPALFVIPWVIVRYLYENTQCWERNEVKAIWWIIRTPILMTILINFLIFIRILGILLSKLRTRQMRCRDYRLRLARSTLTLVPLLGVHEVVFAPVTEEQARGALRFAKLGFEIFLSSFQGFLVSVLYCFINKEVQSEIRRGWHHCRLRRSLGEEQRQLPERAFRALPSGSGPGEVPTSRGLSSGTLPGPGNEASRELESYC
experimental_protocol: Functional cAMP activity in the presence of 1% HSA
Type: cell-based
assay_conditions: read-out: cAMP Rel EC50, hGIPR
Starred links: 1 amine or outer side, 2 acyl side, 3 side chain; linkers in the order of their positions; H or OH if unused. Non-standard residues stand in square brackets, D forms with d. Groups on a side chain read outwards from the residue. *: point of attachment. C20 diacid = O=C(O)CCCCCCCCCCCCCCCCCCC(=O)*; C18 diacid = O=C(O)CCCCCCCCCCCCCCCCC(=O)*; αMePhe(2-F) = C[C@](N)(Cc1ccccc1F)C(=O)O; γGlu = O=C(O)[C@H](CCC(=O)[*:2])N[*:1]; αMe4Pal = C[C@](N)(Cc1ccncc1)C(=O)O; αMeY = C[C@](N)(Cc1ccc(O)cc1)C(=O)O; 4Pal = N[C@@H](Cc1ccncc1)C(=O)O; αMeL = CC(C)C[C@](C)(N)C(=O)O; αMeS = C[C@](N)(CO)C(=O)O; Orn = NCCC[C@H](N)C(=O)O; AEEA = NCCOCCOCC(=O)O; Aib = CC(C)(N)C(=O)O
Consider the cut-off 30 nM. If the recorded EC50 is strictly smaller, the label is t; if not, the label is f.

* H-Y[Aib]QGTFTSD[4Pal]S[Orn][αMeL]LDKK([AEEA-γGlu-C18 diacid])AQ[Aib]AFIEWLLEGGPSSGEPPPSGE-NH2 [Example 115] | f
* H-Y[Aib]QGTFTSDFS[Orn][αMeL]LDKK([AEEA-γGlu-C18 diacid])AQ[Aib]AFIEYLLAGGPSSGAPPPEGS-NH2 [Example 93] | t
* H-Y[Aib]QGTFTSDFS[Orn][αMeL]LDKK([AEEA-AEEA-γGlu-C20 diacid])AQ[Aib]AFIEYLLE[Aib]GPSSGAPPPSEG-NH2 [Example 71] | f
* H-Y[Aib]QGTFTSDFSK[αMeL]LDKK([AEEA-γGlu-C20 diacid])AQ[Aib]AFIEYLLEGAPSSGAPPPSEG-NH2 [Example 47] | f
* H-Y[Aib]QGTFTSDFS[Orn][αMeL]LDKK([AEEA-AEEA-γGlu-C18 diacid])AQ[Aib]AFIEYLLE[Aib]GPSSGAPPPSGS-NH2 [Example 75] | t
* H-Y[Aib]QGTFTSDFS[Orn][αMeL]LDKK([AEEA-γGlu-C18 diacid])AQ[Aib]AFIEWLLEGGPSSGAPPPEGS-NH2 [Example 121] | t
* H-Y[Aib]QGTFTSD[4Pal]S[Orn][αMeL]LDKK([γGlu-γGlu-C18 diacid])AQ[αMe4Pal]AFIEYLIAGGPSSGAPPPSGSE-NH2 [Example 1009] | t
* H-Y[Aib]QGT[αMePhe(2-F)]TSD[4Pal][αMeS]I[αMeL]LD[Orn]QAQ[αMe4Pal]EFI[dE][αMeY]LIEGGPSSGAPPPSGS-NH2 [Example 1232] | t
* H-Y[Aib]QGTFTSDYSK[αMeL]LDKK([AEEA-γGlu-C20 diacid])AQ[Aib]AFVQWLLEGGPSSGEPPPSEG-NH2 [Example 343] | t
* H-Y[Aib]QGTFTSDYSI[αMeL]LDKIAAK([AEEA-AEEA-γGlu-C20 diacid])[Orn]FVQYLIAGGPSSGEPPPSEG-NH2 [Example 308] | f
* H-Y[Aib]QGTFTSD[4Pal][αMeS]Q[αMeL]LD[Orn]K([dE-γGlu-C18 diacid])AQ[αMe4Pal]QFIQ[αMeY]LIE[Aib]GPSSGEPPPSGGGE-NH2 [Example 1183] | t
* H-Y[Aib]QGTFTSD[4Pal]SQ[αMeL]LDKK([AEEA-γGlu-C18 diacid])AQ[αMe4Pal]AFIEYLIE[Aib]GESSGAPPPSGS-NH2 [Example 226] | f
